Tested on: Calu-3
methodSummary: cell viability relative to DMSO; higher = less toxic
conditionNotes: 72 h; 1 nM

{"compound": "CCCN(CCc1cccs1)[C@H]1CCc2c(O)cccc2C1 [rotigotine]", "experimentalTarget": "Calu-3", "cell viability, %": 105}
{"compound": "O=NN(CCCl)C(=O)NC1CCCCC1 [lomustine]", "experimentalTarget": "Calu-3", "cell viability, %": 87.1}
{"compound": "O=C(O)c1ccccc1-c1ccc(C(F)(F)F)cc1 [xenalipin]", "experimentalTarget": "Calu-3", "cell viability, %": 101}
{"compound": "Nc1ncnc2c1ncn2[C@@H]1O[C@H](COP(=O)(O)OP(=O)(O)OP(=O)(O)O)[C@@H](O)[C@H]1O [ADENOSINE TRIPHOSPHATE DISODIUM]", "experimentalTarget": "Calu-3", "cell viability, %": 97}
{"compound": "CC(=O)OCC(=O)NCCCOc1cccc(CN2CCCCC2)c1 [roxatidine-acetate]", "experimentalTarget": "Calu-3", "cell viability, %": 107}
